Please provide measured pIC50 for the entries that follow.
Target: UniProt P11511
Experiment: Aromatase activity in JEG3 cells (Protocol 6)
Conditions: intact JEG3 cells, [1β-3H]androstenedione, 30 min
Protocol: Assay for Determining Aromatase Activity Using JEG3 Cells Aromatase activity is measured in JEG3 choriocarcinoma cells, obtained from the ATCC. […] During the aromatase reaction, ^3H2O is liberated which can be quantified using a liquid scintillation spectrometer. […] The number of cell nuclei per flask is determined using a Coulter Counter after treating the cell monolayers with Zaponin. Aromatase inhibition was measured in accordance with Protocol 6.
// returns pIC50 (minus log10 of molar concentration), number only

Record request: pIC50 value, item N#Cc1ccc(N(Cc2ccc(O)c(F)c2)n2cnnc2)cc1-c1ccccc1
8.80

I am curious: what pIC50 value has been reported for CN1CCN(c2cc(N(Cc3ccc(OS(N)(=O)=O)cc3)n3cnnc3)ccc2C#N)CC1 ?
7.05

Suppose we examine the compound N#Cc1ccc(-c2cc(N(Cc3ccc(OS(N)(=O)=O)cc3)n3cnnc3)ccc2C#N)cc1 ; what pIC50 value has been reported?
9.12

// pIC50 lookup, key: N#Cc1ccc(Nn2cnnc2)cc1-c1ccccc1
9.41

Look at this compound and give its reported pIC50. N#Cc1ccc(N(Cc2ccc(OS(N)(=O)=O)cc2)n2cnnc2)cc1Oc1ccccc1
7.90

# pIC50 lookup, item N#Cc1ccc(N(Cc2ccc(O)c(Br)c2)n2cnnc2)cc1-c1ccccc1
8.44

Reported pIC50, compound N#Cc1ccc(N(Cc2ccc(OS(N)(=O)=O)c(F)c2F)n2cnnc2)cc1-c1ccccc1 : ____
9.10

Entry under review: N#Cc1ccc(N(Cc2c(F)cc(OS(N)(=O)=O)cc2F)n2cnnc2)cc1-c1ccc(F)cc1 . Reported pIC50?
8.25

Can you share its pIC50? I mean this compound: N#Cc1ccc(N(Cc2ccc(Br)cc2)n2cnnc2)cc1-c1ccc(OS(N)(=O)=O)cc1
10.30

Item under review: N#Cc1ccc(N(Cc2ccccc2)n2cnnc2)cc1-c1ccc(OS(N)(=O)=O)cc1 . Reported pIC50?
10.00

Any idea what its pIC50 is? The compound is N#Cc1ccc(N(Cc2ccc(OS(N)(=O)=O)cc2)n2cnnc2)cc1-c1ccncc1
7.44

# pIC50 lookup, item N#Cc1ccc(N(Cc2ccc(OS(N)(=O)=O)c(Br)c2)n2cnnc2)cc1-c1ccsc1
8.59

Given the entry COc1ccc(Cc2cc(N(Cc3ccc(OS(N)(=O)=O)cc3)n3cnnc3)ccc2C#N)cc1 , report its measured pIC50.
7.39

State the recorded pIC50 for this entry: N#Cc1ccc(N(CCc2c(F)cc(O)cc2F)n2cnnc2)cc1
9.85

* * *

target: Aromatase (Homo sapiens); test: Aromatase activity in JEG3 cells (Protocol 6); conditions: intact JEG3 cells, [1β-3H]androstenedione, 30 min
pIC50: −log10 of the molar value.
Record label 1 whenever pIC50 is at 10 or higher; record label 0 when lower.

API: above_or_equal(metric=pIC50, cutoff=10) for item N#Cc1ccc(N(Cc2ccc(O)cc2)n2cnnc2)cc1-c1ccccc1
label 1

Does the compound N#Cc1ccc(N(Cc2ccc(O)cc2)n2cnnc2)cc1CN1CCCC1 have recorded pIC50 that is 10 or more?
label 0

Dear colleague, could you confirm whether N#Cc1ccc(N(Cc2ccc(OS(N)(=O)=O)cc2)n2ccnc2)cc1-c1ccccc1 has pIC50 at or above 10?
label 1

Could you tell me if the measured pIC50 of COc1ccc(Cc2cc(N(Cc3ccc(O)cc3)n3cnnc3)ccc2C#N)cc1 reaches 10 or more?
label 0

Determine whether measured pIC50 meets or exceeds 10 for N#Cc1ccc(N(Cc2ccc(OS(N)(=O)=O)cc2)n2cnnc2)cc1N1CCCCCC1=O
label 0

Check this compound for pIC50 at or above 10: COc1ccc(-c2cc(N(Cc3c(F)cc(OS(N)(=O)=O)cc3F)n3cnnc3)ccc2C#N)cc1
label 1

Is reported pIC50 greater than or equal to 10 here: N#Cc1ccc(N(Cc2ccc(OS(N)(=O)=O)cc2)n2cnnc2)cc1N1CCCCCC1
label 0

Form field: pIC50 at least 10? Entry: N#Cc1ccc(N(Cc2ccc(OS(N)(=O)=O)cc2)n2cnnc2)cc1-c1ccccc1 [Compound 3]
label 0

Threshold query (pIC50 >= 10) on COc1ccc(-c2cc(Nn3cnnc3)ccc2C#N)cc1
label 0

I'd appreciate it if you could say whether N#Cc1ccc(N(Cc2ccc(O)cc2)n2cnnc2)cc1-c1ccncc1 has pIC50 at least equal to 10.
label 0

pIC50 >= 10 for N#Cc1ccc(N(Cc2ccc(OS(N)(=O)=O)cc2F)n2cnnc2)cc1-c1ccccc1 ?
label 0

Check if pIC50 >= 10 (inclusive). Item: CN1CCN(c2cc(N(Cc3ccc(O)cc3)n3cnnc3)ccc2C#N)CC1
label 0

Reported pIC50 reaches at least 10 for N#Cc1ccc(N(Cc2ccc(O)cc2)n2cnnc2)cc1Oc1ccccc1 ?
label 0

Tell me whether pIC50 is at least 10 here: N#Cc1ccc(N(Cc2ccc(OS(N)(=O)=O)c(Cl)c2)n2cnnc2)cc1-c1ccccc1
label 1

Is pIC50 at least 10? Consider COc1ccc(-c2cc(N(Cc3ccc(OS(N)(=O)=O)cc3)n3cnnc3)ccc2C#N)cc1
label 1

* * *

Target: Steroid sulphatase (STS) (Homo sapiens)
Sequence (P08842 22-583): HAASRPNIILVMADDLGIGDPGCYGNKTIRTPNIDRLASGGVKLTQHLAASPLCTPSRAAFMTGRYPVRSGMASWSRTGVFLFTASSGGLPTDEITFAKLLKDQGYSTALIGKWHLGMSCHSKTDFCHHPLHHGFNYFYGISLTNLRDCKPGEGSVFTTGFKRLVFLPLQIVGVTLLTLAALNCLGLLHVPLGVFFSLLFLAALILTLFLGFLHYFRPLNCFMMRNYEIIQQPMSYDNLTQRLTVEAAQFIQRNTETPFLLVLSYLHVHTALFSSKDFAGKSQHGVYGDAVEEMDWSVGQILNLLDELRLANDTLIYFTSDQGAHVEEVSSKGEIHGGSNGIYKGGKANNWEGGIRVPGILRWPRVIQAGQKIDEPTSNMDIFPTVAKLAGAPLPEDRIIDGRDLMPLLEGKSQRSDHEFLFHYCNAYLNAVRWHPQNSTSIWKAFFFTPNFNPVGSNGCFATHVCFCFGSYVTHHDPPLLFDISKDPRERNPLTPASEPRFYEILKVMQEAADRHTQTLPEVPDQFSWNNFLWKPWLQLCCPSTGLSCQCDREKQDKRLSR
Assay: Inhibition of steroid sulphatase activity in JEG3 cells (Protocol 1)
Conditions: intact JEG3 cells, [6,7-3H]oestrone-3-sulphate, 3-4 hours
pIC50: −log10 of the molar value.
Criterion: pIC50 meeting or surpassing 9. Met: 1. Not met: -1.

Determine whether this molecule has pIC50 no lower than 9: N#Cc1ccc(N(Cc2ccc(OS(N)(=O)=O)cc2)n2cnnc2)cc1CN1CCCC1 [Compound 41]
-1

# check: pIC50 of N#Cc1ccc(N(Cc2ccc(OS(N)(=O)=O)c(F)c2)n2cnnc2)cc1-c1ccccc1 [CAB06044] is greater than or equal to 9
-1

Textbook exercise: given the entry N#Cc1ccc(N(Cc2c(F)cc(OS(N)(=O)=O)cc2F)n2cnnc2)cc1-c1ccc(F)cc1 [Compound 47] , state whether its pIC50 is greater than or equal to 9.
-1

Could you tell me if the measured pIC50 of N#Cc1ccc(N(CCc2c(F)cc(OS(N)(=O)=O)cc2F)n2cnnc2)cc1 [Compound 25] reaches 9 or more?
-1

Does the molecule N#Cc1ccc(N(Cc2ccc(OS(N)(=O)=O)c(Br)c2)n2cnnc2)cc1-c1ccsc1 [Compound 9] have recorded pIC50 that is 9 or more?
-1

API: above_or_equal(metric=pIC50, cutoff=9) for item N#Cc1ccc(N(Cc2ccc(OS(N)(=O)=O)c(F)c2F)n2cnnc2)cc1-c1ccccc1 [Compound 34]
-1

Threshold query (pIC50 >= 9) on N#Cc1ccc(N(Cc2ccc(OS(N)(=O)=O)cc2)n2cnnc2)cc1-c1ccc(F)cc1 [CAB06078]
-1

Form field: pIC50 at least 9? Entry: N#Cc1ccc(N(Cc2ccc(OS(N)(=O)=O)cc2)n2cnnc2)cc1Cc1ccccc1 [Compound 13]
-1

Item N#Cc1ccc(N(Cc2ccc(OS(N)(=O)=O)c(Br)c2)n2cnnc2)cc1-c1ccccc1 [CAB06045] with pIC50 of 9 or above?
1

Textbook exercise: given the entry N#Cc1ccc(N(Cc2ccc(OS(N)(=O)=O)cc2F)n2cnnc2)cc1-c1ccccc1 [Compound 31] , state whether its pIC50 is greater than or equal to 9.
1

# check: pIC50 of COc1ccc(Cc2cc(N(Cc3ccc(OS(N)(=O)=O)cc3)n3cnnc3)ccc2C#N)cc1 [Compound 45] is greater than or equal to 9
-1

pIC50 >= 9 for N#Cc1ccc(N(CCC(=O)c2ccc(OS(N)(=O)=O)cc2)n2cnnc2)cc1-c1ccccc1 [Compound 29] ?
-1

* * *

Target: Aromatase (Homo sapiens, UniProt P11511)
Sequence (P11511 1-503): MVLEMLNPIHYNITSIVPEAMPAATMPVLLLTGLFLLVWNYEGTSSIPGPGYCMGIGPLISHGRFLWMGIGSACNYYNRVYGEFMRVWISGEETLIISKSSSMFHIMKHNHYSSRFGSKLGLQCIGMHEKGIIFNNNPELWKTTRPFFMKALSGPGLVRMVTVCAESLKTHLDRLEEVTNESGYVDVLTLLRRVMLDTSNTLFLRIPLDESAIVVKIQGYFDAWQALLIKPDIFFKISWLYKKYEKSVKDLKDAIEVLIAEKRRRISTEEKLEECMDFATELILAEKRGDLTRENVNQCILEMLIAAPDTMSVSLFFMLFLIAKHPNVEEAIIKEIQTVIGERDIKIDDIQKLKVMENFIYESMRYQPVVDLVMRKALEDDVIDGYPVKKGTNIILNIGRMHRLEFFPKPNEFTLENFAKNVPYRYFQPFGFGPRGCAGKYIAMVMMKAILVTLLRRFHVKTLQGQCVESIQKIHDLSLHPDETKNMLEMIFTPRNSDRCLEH
Assay: Aromatase activity in JEG3 cells (Protocol 6)
Conditions: intact JEG3 cells, [1β-3H]androstenedione, 30 min
MEASURED_ENDPOINT: IC50 (nM)
All answers are understood in nM, so give the number only.

# get_value(readout='IC50', item= N#Cc1ccc(N(Cc2c(F)cc(O)cc2F)n2cnnc2)cc1-c1ccc(F)cc1 )
4.1

Which IC50 value belongs to N#Cc1ccc(N(Cc2ccc(OS(N)(=O)=O)cc2)n2cnnc2)cc1N1CCCCC1 ?
3.4

Any idea what its IC50 is? The compound is N#Cc1ccc(N(Cc2ccccc2)n2cnnc2)cc1-c1ccc(O)cc1
0.33

Could you tell me which IC50 is on file for N#Cc1ccc(N(Cc2ccc(Br)cc2)n2cnnc2)c(-c2ccccc2)c1 ?
960

Requested read-out: IC50. Entry: N#Cc1ccc(N(Cc2ccc(O)c(F)c2F)n2cnnc2)cc1-c1ccccc1
1

Please give the measured IC50 for this compound: N#Cc1ccc(N(Cc2ccc(OS(N)(=O)=O)cc2)n2cnnc2)cc1N1CCOCC1
44

Entry N#Cc1ccc(C(c2ccc(O)cc2)n2cncn2)cc1-c1ccccc1 (centres unmarked) : reported IC50 = ?
0.23

For the compound N#Cc1ccc(N(Cc2ccc(O)cc2F)n2cnnc2)cc1-c1ccccc1 , what IC50 is on record?
0.35

State the recorded IC50 for this entry: N#Cc1ccc(N(Cc2ccc(OS(N)(=O)=O)c(Br)c2)n2cnnc2)cc1-c1ccccc1
0.018

Look at this compound and give its reported IC50. N#Cc1ccc(N(Cc2ccc(OS(N)(=O)=O)cc2)n2cnnc2)cc1-c1ccc(F)cc1
0.47

Any idea what its IC50 is? The compound is N#Cc1ccc(N(Cc2ccc(OS(N)(=O)=O)cc2)n2cnnc2)c2ccccc12
200

Given the entry N#Cc1ccc(N(Cc2ccc(OS(N)(=O)=O)cc2)n2cnnc2)cc1CN1CCCC1 , report its measured IC50.
97
